Molecular target: human PKal (Homo sapiens, UniProt P03952)
Construct: FXIIa converts plasma prekallikrein (PK) to plasma kallikrein (PKa)
Sequence (P03952 391-638 limits assumed): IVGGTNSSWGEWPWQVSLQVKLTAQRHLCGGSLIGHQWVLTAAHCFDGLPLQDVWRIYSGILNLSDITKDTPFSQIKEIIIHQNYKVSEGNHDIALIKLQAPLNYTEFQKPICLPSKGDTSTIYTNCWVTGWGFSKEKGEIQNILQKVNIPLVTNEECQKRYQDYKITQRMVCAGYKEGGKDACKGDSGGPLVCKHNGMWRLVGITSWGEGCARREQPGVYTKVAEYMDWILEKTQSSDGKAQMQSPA
Sequence (P03952 20-390 partner limits assumed): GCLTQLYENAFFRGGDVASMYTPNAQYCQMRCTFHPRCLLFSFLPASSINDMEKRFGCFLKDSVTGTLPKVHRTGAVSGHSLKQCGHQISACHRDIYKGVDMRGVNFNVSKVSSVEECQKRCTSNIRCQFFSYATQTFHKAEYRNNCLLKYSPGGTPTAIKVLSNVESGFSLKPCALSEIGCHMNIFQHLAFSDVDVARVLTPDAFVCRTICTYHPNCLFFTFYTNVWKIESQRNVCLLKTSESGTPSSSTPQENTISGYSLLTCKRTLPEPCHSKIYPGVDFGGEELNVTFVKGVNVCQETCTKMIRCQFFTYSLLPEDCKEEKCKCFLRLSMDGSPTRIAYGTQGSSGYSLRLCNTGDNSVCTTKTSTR
Experiment: Determination of related protease inhibition: plasma kallikrein
Type: biochemical
Conditions: fluorogenic substrate at Km concentration, 25 °C; read-out: IC50 (human PKal)
MEASURE_NAME: IC50

>>> value("Cn1ccc(OCC23CN(C(=O)CC4CCCCC4)C(CNc4cccc5c(N)nccc45)(C2)C3)cc1=O")
"> 40 µM"

Endpoint output: IC50 of Cc1cc(OCC23CN(C(=O)C4CC5(CCOCC5)C4)C(CNc4cccc5c(N)nccc45)(C2)C3)cc(=O)n1C . Value?
> 40 µM

====

List of IC50 values.
Target: Human Factor XIIa (Homo sapiens, UniProt P00748)
Construct: purchased Enzyme Research Laboratories
Sequence (P00748 373-615 limits assumed): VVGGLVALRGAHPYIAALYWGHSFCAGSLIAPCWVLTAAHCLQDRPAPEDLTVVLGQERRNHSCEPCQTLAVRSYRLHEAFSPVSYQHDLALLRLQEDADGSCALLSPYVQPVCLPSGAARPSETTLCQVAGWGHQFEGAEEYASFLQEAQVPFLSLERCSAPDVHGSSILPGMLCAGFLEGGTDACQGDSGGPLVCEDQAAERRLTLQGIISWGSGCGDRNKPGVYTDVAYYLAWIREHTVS
Sequence (P00748 20-372 partner limits assumed): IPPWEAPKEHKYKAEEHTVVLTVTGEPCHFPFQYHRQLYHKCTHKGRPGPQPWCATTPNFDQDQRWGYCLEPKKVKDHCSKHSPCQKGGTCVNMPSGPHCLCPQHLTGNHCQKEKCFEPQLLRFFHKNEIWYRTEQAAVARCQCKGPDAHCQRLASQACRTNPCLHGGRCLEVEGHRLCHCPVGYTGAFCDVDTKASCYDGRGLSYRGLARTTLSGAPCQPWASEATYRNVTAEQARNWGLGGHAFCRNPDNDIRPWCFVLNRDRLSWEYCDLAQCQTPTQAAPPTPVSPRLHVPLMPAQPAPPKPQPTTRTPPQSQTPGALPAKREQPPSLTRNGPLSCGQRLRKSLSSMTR
Assay: Determination of FXIIa inhibition (in vitro IC50 assay, fluorogenic substrate H-DPro-Phe-Arg-AFC)
Assay type: biochemical
Conditions: human Factor XIIa; fluorogenic substrate H-DPro-Phe-Arg-AFC at Km concentration; 5 min, 25 °C; class symbols; read-out: Human FXIIa IC50
Method: In vitro inhibition of Factor XIIa was determined using an IC50 assay based on standard literature methods (see e.g Baeriswyl et al., ACS Chem. Biol., 2015, 10 (8) 1861; Bouckaert et al., European Journal of Medicinal Chemistry 110 (2016) 181). […] Protease activity was measured by monitoring the accumulation of liberated fluorescence from the substrate over 5 min at 25 °C. The linear rate of fluorescence increase per minute was expressed as percentage (%) activity. […]

Example cases with answers are listed next.
>>> value("COc1ccc2c(c1)CCCN2C(=O)N1CC2(COc3ccn(C)c(=O)c3)CC1(CNc1cccc3c(N)nccc13)C2")
"100 to 300 nM"
>>> value("Cn1ccc(OCC23CN(C(=O)Cc4ccc5c(c4)CCCO5)C(CNc4cccc5c(N)nccc45)(C2)C3)cc1=O")
"1 to 10 nM"
>>> value("Cc1cc(OCC23CN(C(=O)CC4CCC(F)(F)CC4)C(CNc4cccc5c(N)nccc45)(C2)C3)cc(=O)n1C")
"10 to 100 nM"
>>> value("C[C@H](NC(=O)N1CC2(COc3ccn(C)c(=O)c3)CC1(CNc1cccc3c(N)nccc13)C2)c1ccccc1")
"10 to 100 nM"
>>> value("Cn1ccc(OCC23CN(C(=O)C(C)(C)Cc4ccccc4)C(CNc4cccc5c(N)nccc45)(C2)C3)cc1=O")
"100 to 300 nM"
>>> value("CO[C@H]1CC[C@@H](CC(=O)N2CC3(COc4cc(C)n(C)c(=O)c4)CC2(CNc2cccc4c(N)nccc24)C3)CC1 (single isomer, unassigned)")
"10 to 100 nM"
>>> value("Cn1ccc(OCC23CN(C(=O)N4CCOCC4)C(CNc4cccc5c(N)nccc45)(C2)C3)cc1=O")
"10 to 100 nM"
>>> value("Cn1ccc(OCC23CN(C(=O)NC4(C)COC4)C(CNc4cccc5c(N)nccc45)(C2)C3)cc1=O")
"10 to 100 nM"

# get_value(readout='IC50', item= Cn1ccc(OCC23CN(C(=O)NC4CCC(S(=O)(=O)C5CCCCC5)CC4)C(CNc4cccc5c(N)nccc45)(C2)C3)cc1=O (stereo not drawn) )
10 to 100 nM

Looking for the measured IC50 of Cn1ccc(OCC23CN(C(=O)Nc4cc(F)cc5c4OCOC5)C(CNc4cccc5c(N)nccc45)(C2)C3)cc1=O , can you help?
1 to 10 nM

Reported IC50 for Cc1cc(OCC23CN(C(=O)N(C)C[C@@H]4CCOC4)C(CNc4cccc5c(N)nccc45)(C2)C3)cc(=O)n1C : what is it?
10 to 100 nM

Quick one: IC50 for Cn1ccc(OCC23CC(CNc4cccc5c(N)nccc45)(CN2C(=O)CC2CCCCC2)C3)cc1=O ?
300 to 1000 nM

For the molecule Cn1ccc(OCC23CN(C(=O)NC4(C)CCOCC4)C(CNc4cccc5c(N)nccc45)(C2)C3)cc1=O , what IC50 is on record?
10 to 100 nM

Find the recorded IC50 belonging to Cn1ccc(OCC23CN(c4ncc(C5CC5)cn4)C(CNc4cccc5c(N)nccc45)(C2)C3)cc1=O and report it.
10 to 100 nM

Could you tell me which IC50 is on file for Nc1nccc2c(NCC34CC(COc5cc6n(c(=O)c5)CCC6)(CN3C(=O)NC3(c5ccccc5)CC3)C4)cccc12 ?
1 to 10 nM

Please report the recorded IC50 for Cc1cc(OCC23CN(C(=O)CC45CCC(CC4)C5)C(CNc4cccc5c(N)nccc45)(C2)C3)cc(=O)n1C .
10 to 100 nM

May I ask what IC50 has been recorded for Cc1cc(OCC23CN(C(=O)C4CC5(CCOCC5)C4)C(CNc4cccc5c(N)nccc45)(C2)C3)cc(=O)n1C ?
10 to 100 nM

Find the recorded IC50 belonging to Cn1ccc(OCC23CN(C(=O)NCC4(C)COC4)C(CNc4cccc5c(N)nccc45)(C2)C3)cc1=O and report it.
10 to 100 nM

I have this molecule here, CC(=O)NC(C)C(=O)N1CC2(COc3cc(C)n(C)c(=O)c3)CC1(CNc1cccc3c(N)nccc13)C2 (stereo not drawn) , and I need its recorded IC50.
10 to 100 nM

IC50 lookup needed for Cn1ccc(OCC23CN(C(N)=O)C(CNc4cccc5c(N)nccc45)(C2)C3)cc1=O , thanks.
10 to 100 nM

Quick one: IC50 for Cc1cc(OCC23CN(C(=O)N(C)[C@H]4CCOC4)C(CNc4cccc5c(N)nccc45)(C2)C3)cc(=O)n1C ?
10 to 100 nM

====

Target: Human Factor XIIa (Homo sapiens, UniProt P00748)
Construct: purchased Enzyme Research Laboratories
Assay: Determination of FXIIa inhibition (in vitro IC50 assay, fluorogenic substrate H-DPro-Phe-Arg-AFC)
Assay type: biochemical
Details: human Factor XIIa; fluorogenic substrate H-DPro-Phe-Arg-AFC at Km concentration; 5 min, 25 °C; class symbols; read-out: Human FXIIa IC50
MEASURE_NAME: IC50

>>> value("Cn1ccc(OCC23CN(C(=O)NC4(c5ccccc5)CCOCC4)C(CNc4cccc5c(N)nccc45)(C2)C3)cc1=O [Example 64]")
"10 to 100 nM"
>>> value("Cn1ccc(OCC23CN(C(=S)Nc4ccccc4)C(CNc4cccc5c(N)nccc45)(C2)C3)cc1=O [Example 91]")
"10 to 100 nM"

From here, focus on the item given below.
Consider the molecule shown here: Cn1ccc(OCC23CN(C(=O)N4Cc5ccccc5C4)C(CNc4cccc5c(N)nccc45)(C2)C3)cc1=O [Example 50] What is its recorded IC50?
10 to 100 nM
